Data credit: PubChem BioAssay AID2330

- PROCEDURE TEXT: NOMO-1 AML cell viability reduction, primary screen, STK33 inhibitor project, CellTiter-Glo luminescence (AID 2330)
- EXPERIMENTAL PARAMETERS: NOMO-1 AML viability, 72 h, hits give high values, concentration not given here
In all, about 37,000 compounds went through this assay and about 2,800 (7.6%) were called active. Not shown: some 1% with an inconclusive outcome. Only a selection was taken, and actives are over-represented in it overall.
Mark Satisfied only for inhibition values smaller than 40%; exact matches and larger values are Not satisfied.

| MOL SMILES | CLASS NAME |
| --- | --- |
| C[C@H](CO)N1C[C@H](C)[C@@H](CN(C)S(=O)(=O)c2ccc(Cl)cc2)Oc2ccc(NS(=O)(=O)c3cn(C)cn3)cc2C1=O | Satisfied |
| Cc1noc(C)c1NC(=O)Nc1cccc2c1O[C@H](CN(C)C(=O)Nc1ccccc1)[C@@H](C)CN([C@H](C)CO)C2=O | Satisfied |
| CC[N+]1=C(C)C(C)(C)c2cc(-c3ccccc3)ccc21 | Not satisfied |
| Cn1nc(CC(=O)Nc2ccc3c(c2)oc2ccccc23)c2ccccc2c1=O | Satisfied |
| C[C@@H]1CN([C@H](C)CO)C(=O)Cc2cc(NC(=O)Cn3cnnn3)ccc2O[C@H]1CN(C)Cc1ccc(C(F)(F)F)cc1 | Satisfied |
| COc1ccc(CN(C)C[C@@H]2Oc3ccc(NC(=O)NC(C)C)cc3C(=O)N([C@@H](C)CO)C[C@H]2C)cc1 | Satisfied |
| Cc1noc(C)c1NC(=O)N(C)C[C@H]1Oc2ccc(NC(=O)Nc3ccc(C(F)(F)F)cc3)cc2CC(=O)N([C@@H](C)CO)C[C@@H]1C | Satisfied |
| COC(=O)c1scc(S(=O)(=O)C(C)(C)C)c1-n1cccc1 | Not satisfied |

---

- PROCEDURE TEXT: NOMO-1 AML cell viability reduction, primary screen, STK33 inhibitor project, CellTiter-Glo luminescence (AID 2330)
- EXPERIMENTAL PARAMETERS: NOMO-1 AML viability, 72 h, concentration not given here
In all, about 37,000 compounds went through this assay and about 2,800 (7.6%) were called active. Roughly 1% stayed inconclusive and do not appear here. Rule as the data show it: active = inhibition above about 80%; inconclusive = no clear call, values can overlap the other calls; inactive = below that. The sample holds actives, similar compounds and a random draw of the others, so the mix is not that of the screen.
Possible outcomes: active, inactive

| COMPOUND | CLASS NAME |
| --- | --- |
| C[C@@H]1CN([C@H](C)CO)C(=O)c2cc(NC(=O)C3CC3)ccc2O[C@@H]1CN(C)C | inactive |
| COC(=O)c1sc(SC)c(-c2ccn(S(=O)(=O)c3ccc(Cl)cc3)n2)c1C | inactive |
| Cc1noc(C)c1S(=O)(=O)Nc1ccc2c(c1)C(=O)N([C@@H](C)CO)C[C@@H](C)[C@H](CN(C)Cc1ccc(-c3ccccc3)cc1)O2 | inactive |
| OC(c1nc2ccccc2[nH]1)C(O)C(O)C(O)c1nc2ccccc2[nH]1 (configuration not stated) | inactive |
| O=C(CSc1nc2ccccc2o1)Nc1ccccn1 | inactive |
| COc1ccc(S(=O)(=O)Nc2cccc3c2O[C@@H](CN(C)S(=O)(=O)c2c(C)noc2C)[C@@H](C)CN([C@H](C)CO)C3=O)cc1 | inactive |
| O=C1c2ccccc2S(=O)c2ccccc2S(=O)(=O)N1Cc1ccccc1 (configuration not stated) | active |
| O=C(O)c1c(Br)c(Br)c(Br)c(Br)c1-c1c2ccc(=O)cc-2oc2cc(O)ccc12 | inactive |
| Cc1noc(C)c1S(=O)(=O)Nc1ccc2c(c1)C(=O)N([C@@H](C)CO)C[C@@H](C)[C@H](CN(C)C(=O)Nc1cccc3ccccc13)O2 | inactive |
| Cc1noc(C)c1NC(=O)Nc1ccc2c(c1)C(=O)N([C@H](C)CO)C[C@H](C)[C@H](CN(C)Cc1ccc(Oc3ccccc3)cc1)O2 | inactive |
| COc1ccc(NC(=O)N(C)C[C@H]2Oc3ccc(NC(=O)NC(C)C)cc3CC(=O)N([C@H](C)CO)C[C@H]2C)cc1 | inactive |
| Cc1cc(C(=O)Nc2cccc3c2O[C@@H](CN(C)C(=O)Nc2ccc4c(c2)OCO4)[C@H](C)CN([C@@H](C)CO)C3=O)n(C)n1 | inactive |
| COc1cccc2cc(C(=O)C3C(=O)C(=O)N(CCN4CCOCC4)C3c3ccc(F)cc3)oc12 (configuration not stated) | inactive |
| O=C(c1cc2ccccc2oc1=O)N(Cc1ccc(F)cc1)Cc1ccco1 | inactive |
| Nc1nnc(SCCN2C(=O)c3ccccc3S2(=O)=O)s1 | inactive |
| C[C@H](CO)N1C[C@H](C)[C@H](CN(C)S(=O)(=O)c2ccc(Cl)cc2)Oc2c(NS(C)(=O)=O)cccc2C1=O | inactive |
| COc1cccc(-c2cc(C(F)(F)F)n3nc(C(=O)NCc4ccccn4)cc3n2)c1 | inactive |

---

In this section, each of the molecules is paired with its reported inhibition.
- PROCEDURE TEXT: NOMO-1 AML cell viability reduction, primary screen, STK33 inhibitor project, CellTiter-Glo luminescence (AID 2330)
- EXPERIMENTAL PARAMETERS: NOMO-1 AML viability, 72 h, hits give high values, concentration not given here
Hit rate of the full screen: of about 37,000 compounds, about 2,800 (7.6%) were called active. About 1% were inconclusive and are not listed. This excerpt belongs to a sample that is enriched for actives.

| MOLECULE | inhibition |
| --- | --- |
| C[C@H]1CN([C@@H](C)CO)C(=O)c2cccc(NC(=O)Nc3ccccc3)c2O[C@H]1CN(C)Cc1ccc(Oc2ccccc2)cc1 | 18.8% (inactive) |
| C[C@H](CO)N1C[C@H](C)[C@@H](CN(C)C(=O)Nc2ccccc2)Oc2c(NC(=O)CCCCCC(=O)Nc3ccccc3N)cccc2C1=O | 21.7% (inactive) |
| c1ccc(-n2c(SCc3nc4ccccc4s3)nnc2-c2ccncc2)cc1 | 37.8% (inactive) |
| CC(Sc1nc2ccccc2[nH]1)c1nc2ccccc2[nH]1 (stereo not given) | 4.08% (inactive) |
| CC(=O)Nc1ccc(NC(=O)CC2C(=O)Nc3ccccc3N2C(C)=O)cc1 (stereo not given) | -5.07% (inactive) |
| Cc1ccc(S(=O)(=O)Nc2ccc3c(c2)CC(=O)N([C@@H](C)CO)C[C@H](C)[C@H](CN(C)Cc2ccccc2)O3)cc1 | 26% (inactive) |
| C[C@H](CO)N1C[C@H](C)[C@@H](CN(C)Cc2ccc(Cl)c(Cl)c2)Oc2ccc(NS(=O)(=O)c3ccccc3)cc2C1=O | 20.4% (inactive) |
| O=C1C2=C(Nc3ccccc3S(=O)(=O)C2c2ccc(Cl)cc2)c2ccccc21 (stereo not given) | 121% (active) |
| CC(=O)Nc1ccc(NC(=O)COc2ccccc2C(=O)Nc2cccc(Cl)c2Cl)cc1 | -3.66% (inactive) |
| COc1ccc(S(=O)(=O)Nc2ccc3c(c2)C(=O)N([C@@H](C)CO)C[C@H](C)[C@H](CN(C)Cc2ccc(C(F)(F)F)cc2)O3)cc1 | 50.5% (inactive) |

---

- PROCEDURE TEXT: NOMO-1 AML cell viability reduction, primary screen, STK33 inhibitor project, CellTiter-Glo luminescence (AID 2330)
- EXPERIMENTAL PARAMETERS: NOMO-1 AML viability, 72 h, hits give high values, concentration not given here
Screen size: about 37,000 compounds; about 2,800 (7.6%) were called active. Inconclusive results (about 1%) are left out. The entries come from a sample that favours actives as a whole.
MEASURED ENDPOINT: inhibition (%)

| MOLECULE | NUMERIC READOUT |
| --- | --- |
| S=C(NCC1CC1)Nc1ccc(Cl)cc1 | 34.8 |
| Cc1cc(C)n2nc(SCC(=O)Nc3ccccc3[N+](=O)[O-])nc2n1 | 4.39 |
| O=C1c2ccccc2C(=O)C1c1cc(=O)[nH]c2c1ccc1ccccc12 | 11.8 |
| CS(=O)(=O)N(CC(=O)Nc1ccc(F)c(F)c1)c1ccccc1F | -8.09 |
| C[C@H](CO)N1C[C@H](C)[C@H](CN(C)S(=O)(=O)c2ccc(Cl)cc2)Oc2ccc(NC(=O)C3CCCCC3)cc2C1=O | 7.26 |
| C[C@@H]1CN([C@H](C)CO)C(=O)Cc2cc(NC(=O)Nc3ccc(C(F)(F)F)cc3)ccc2O[C@H]1CN(C)Cc1ccc(-c2ccccc2)cc1 | 128 |
| Cc1noc(C)c1NC(=O)N(C)C[C@@H]1Oc2ccc(NC(=O)Nc3ccc(C(F)(F)F)cc3)cc2C(=O)N([C@H](C)CO)C[C@@H]1C | 7.38 |
| Cn1c(OCc2cccnc2)nc2c1c(=O)n(Cc1ccc(Cl)c(Cl)c1)c(=O)n2C | 27.8 |
| C/C=C(/C)C(=O)OC1Cc2c(ccc3ccc(=O)oc23)OC1(C)C (stereo not given) | 9.99 |
| Oc1cc2c(cc1O)CN(C(=S)NCCc1ccc(Cl)cc1)CCC2 | 96.6 |
| C[C@H](CO)N1C[C@H](C)[C@@H](CN(C)C(=O)Nc2ccc3c(c2)OCO3)Oc2c(cccc2N(C)C)C1=O | 13.3 |
| C[C@@H]1CN([C@@H](C)CO)C(=O)c2cccc(NC(=O)Nc3ccccc3)c2O[C@H]1CN(C)Cc1ccccc1 | 117 |
| CC(=O)c1cccc(NC(=O)CN(c2ccc(F)c(Cl)c2)S(C)(=O)=O)c1 | 13.8 |
| O=C(CSc1nnc(-c2ccco2)n1-c1ccccc1)Nc1ccc(F)cc1 | 3.32 |
| CC1CCCCC1NC(=O)CSc1nnc(N)s1 (stereo not given) | 13.1 |
